Recorded pIC50 by entry
tested_on: hACC1 (Homo sapiens)
Construct: we cloned full-length cDNAs for both the human isoforms (hACC1 and hACC2); His tag (from pET30a) (C)
experiment_notes: Recombinant human ACC1 activity, [14C]bicarbonate incorporation
condition_notes: Table II; read-out: Enzyme Activity IC50 Human ACC1
Lab note: report pIC50 as minus log10 of the concentration in molar units, number only.

Recorded results for 2 molecules are shown here.
* CC[N+](CC)(CCCCN(Cc1ccc2ccccc2c1)S(=O)(=O)c1cccc(Cl)c1Cl)Cc1cc(C)cc(C)c1 [Compound 237] | 4.92
* CO[C@H]1CCCC[C@@H](c2ccccc2)OC(=O)[C@@H](C)[C@@]2(O)O[C@H]([C@@H](C)[C@H](O)[C@H]2OC)[C@@H](C)/C=C/[C@H]1OC [soraphen A, Soraphen A, reference compound] | 7.96

## Input Which pIC50 reading was recorded for the molecule CC[N+](CC)(CCCCN(Cc1ccc2ccccc2c1)C(=O)c1sc2c(Cl)c(OC)ccc2c1Cl)Cc1cc(C)cc(C)c1 [Compound 326] ?
## Output 6.82

## Input Which pIC50 reading was recorded for the molecule CC[N+](CC)(CCCCN(Cc1ccc2ccccc2c1)C(=O)c1sc2cccc(Cl)c2c1Cl)Cc1cc(C)cc(C)c1.[Br-] [Compound 322] ?
## Output 6.60

## Input Which pIC50 reading was recorded for the molecule CC[N+](CC)(CCCCN(Cc1ccc2ccccc2c1)C(=O)c1cc2cccc(OC)c2cc1OC)Cc1cc(C)cc(C)c1 [Compound 260] ?
## Output 5.55
